Tested on: Pseudomonas aeruginosa
test-description: Antibacterial activity against Pseudomonas aeruginosa PAO1 assessed as post antibiotic effect by measuring time required for increase in 1 log10 CFU/ml of bacteria at 8X MIC incubated for 1 hr followed by compound washout
Assay type: functional
result-type: Time (h)

molecule: CC(CCn1ccc(-c2ccc(-c3cn(CC4CC4)nn3)cc2)cc1=O)(C(=O)NO)S(C)(=O)=O (racemic)
tested-target: Pseudomonas aeruginosa
value-units: h
val: 2.2
//
molecule: CC(CCn1ccc(-c2ccccc2)cc1=O)(C(=O)NO)S(C)(=O)=O (racemic)
tested-target: Pseudomonas aeruginosa
value-units: h
val: 1.1
//
molecule: CC(CCn1ccc(-c2ccc(-c3cn(Cc4ccc(F)cc4)nn3)cc2)cc1=O)(C(=O)NO)S(C)(=O)=O (racemic)
tested-target: Pseudomonas aeruginosa
value-units: h
val: 2.5
//
molecule: COc1ccc(-c2ccc(CNC3(C(=O)NO)CCS(=O)(=O)CC3)cc2)c(F)c1
tested-target: Pseudomonas aeruginosa
value-units: h
val: 1.3
//
molecule: CC(CCn1ccc(-c2ccc(-n3nccn3)cc2)cc1=O)(C(=O)NO)S(C)(=O)=O (racemic)
tested-target: Pseudomonas aeruginosa
value-units: h
val: 2.2

---

Catalogue of compounds with associated TIME
System: Pseudomonas aeruginosa
test-description: Binding affinity to Pseudomonas aeruginosa LpxC assessed as residence time incubated for 18 hrs by fluorescence based assay

compound: COc1ccc(-c2ccc(CNC3(C(=O)NO)CCS(=O)(=O)CC3)cc2)c(F)c1
TIME: 0.533 h

compound: CC(CCn1ccc(-c2ccc(NC(=O)Cc3ccccc3)cc2)cc1=O)(C(=O)NO)S(C)(=O)=O (racemic)
TIME: 0.0667 h

compound: CC(CCn1ccc(-c2ccc(-c3cn(Cc4ccncn4)nn3)cc2)cc1=O)(C(=O)NO)S(C)(=O)=O (racemic)
TIME: 1.71 h

compound: CC(CCn1ccc(-c2ccc(CN3CCOCC3)cc2)cc1=O)(C(=O)NO)S(C)(=O)=O (racemic)
TIME: 0.0783 h

---

System: Pseudomonas aeruginosa
test-description: Binding affinity to Pseudomonas aeruginosa LpxC assessed as residence time incubated for 18 hrs by fluorescence based assay

compound: CC(CCn1ccc(-c2ccc(C(=O)NCc3ccccc3)cc2)cc1=O)(C(=O)NO)S(C)(=O)=O (racemic)
TIME (h): 0.133

compound: CC(CCn1ccc(-c2ccc(-c3cn(Cc4ccccc4)nn3)cc2)cc1=O)(C(=O)NO)S(C)(=O)=O (racemic)
TIME (h): 0.955

compound: CC(CCn1ccc(-c2ccc(-c3cn(CC4CCCCC4)nn3)cc2)cc1=O)(C(=O)NO)S(C)(=O)=O (racemic)
TIME (h): 1.67

compound: CC(CCn1ccc(-c2ccc(-c3cnnn3Cc3ccccc3)cc2)cc1=O)(C(=O)NO)S(C)(=O)=O (racemic)
TIME (h): 0.15

compound: CC(CCn1ccc(-c2ccc(-c3cn(Cc4cccnc4)nn3)cc2)cc1=O)(C(=O)NO)S(C)(=O)=O (racemic)
TIME (h): 2.02

compound: CC(CCn1ccc(-c2ccc(-c3cn(Cc4ccc([N+](=O)[O-])cc4)nn3)cc2)cc1=O)(C(=O)NO)S(C)(=O)=O (racemic)
TIME (h): 1.31

compound: CC(CCn1ccc(-c2ccc(-c3cn(Cc4ccc(F)cc4)nn3)cc2)cc1=O)(C(=O)NO)S(C)(=O)=O (racemic)
TIME (h): 1.14

compound: COc1ccc(-c2ccc(CNC3(C(=O)NO)CCS(=O)(=O)CC3)cc2F)cc1
TIME (h): 0.572

compound: C=CCn1cc(-c2ccc(-c3ccn(CCC(C)(C(=O)NO)S(C)(=O)=O)c(=O)c3)cc2)nn1 (racemic)
TIME (h): 1.38

compound: CC(CCn1ccc(-c2ccc(-c3cn(CC4CC4)nn3)cc2)cc1=O)(C(=O)NO)S(C)(=O)=O (racemic)
TIME (h): 1.11

---

Examples of molecules with documented TIME follow.
System: Pseudomonas aeruginosa
test-description: Binding affinity to Pseudomonas aeruginosa LpxC assessed as residence time incubated for 18 hrs by spin column assay

molecule: CC(CCn1ccc(-c2ccc(-c3cn(CC4CC4)nn3)cc2)cc1=O)(C(=O)NO)S(C)(=O)=O (racemic)
TIME [h]: 191
//
molecule: COc1ccc(-c2ccc(CNC3(C(=O)NO)CCS(=O)(=O)CC3)cc2)c(F)c1
TIME [h]: 79
//
molecule: CC(CCn1ccc(-c2ccc(-c3cn(Cc4ccc(F)cc4)nn3)cc2)cc1=O)(C(=O)NO)S(C)(=O)=O (racemic)
TIME [h]: 106
//
molecule: C=CCn1cc(-c2ccc(-c3ccn(CCC(C)(C(=O)NO)S(C)(=O)=O)c(=O)c3)cc2)nn1 (racemic)
TIME [h]: 146

---

Quick list: K per entry.
Tested on: Pseudomonas aeruginosa
test-description: Binding affinity to Pseudomonas aeruginosa LpxC assessed as binding constant (kon) incubated for 18 hrs by fluorescence based assay

compound: CC(CCn1ccc(-c2ccc(-c3cnnn3Cc3ccccc3)cc2)cc1=O)(C(=O)NO)S(C)(=O)=O (racemic)
tested-target: Pseudomonas aeruginosa
K / M⁻¹ s⁻¹: 2.78e+07
--
compound: COc1ccc(-c2ccc(CNC3(C(=O)NO)CCS(=O)(=O)CC3)cc2)c(F)c1
tested-target: Pseudomonas aeruginosa
K / M⁻¹ s⁻¹: 1.66e+07
--
compound: CC(CCn1ccc(-c2ccc(C(=O)NCc3ccccc3)cc2)cc1=O)(C(=O)NO)S(C)(=O)=O (racemic)
tested-target: Pseudomonas aeruginosa
K / M⁻¹ s⁻¹: 2.38e+07
--
compound: CC(CCn1ccc(-c2ccc(-c3cn(Cc4ccccc4)nn3)cc2)cc1=O)(C(=O)NO)S(C)(=O)=O (racemic)
tested-target: Pseudomonas aeruginosa
K / M⁻¹ s⁻¹: 4.38e+07
--
compound: COc1ccc(-c2ccc(CNC3(C(=O)NO)CCS(=O)(=O)CC3)cc2F)cc1
tested-target: Pseudomonas aeruginosa
K / M⁻¹ s⁻¹: 3.45e+07
--
compound: CC(CCn1ccc(-c2ccc(-c3cn(Cc4cccnc4)nn3)cc2)cc1=O)(C(=O)NO)S(C)(=O)=O (racemic)
tested-target: Pseudomonas aeruginosa
K / M⁻¹ s⁻¹: 4.28e+07
--
compound: CC(CCn1ccc(-c2ccc(NC(=O)Cc3ccccc3)cc2)cc1=O)(C(=O)NO)S(C)(=O)=O (racemic)
tested-target: Pseudomonas aeruginosa
K / M⁻¹ s⁻¹: 4.48e+07
--
compound: CC(CCn1ccc(-c2ccc(-c3cn(Cc4ccc([N+](=O)[O-])cc4)nn3)cc2)cc1=O)(C(=O)NO)S(C)(=O)=O (racemic)
tested-target: Pseudomonas aeruginosa
K / M⁻¹ s⁻¹: 3.07e+07
--
compound: CC(CCn1ccc(-c2ccc(-c3cn(Cc4ccc(F)cc4)nn3)cc2)cc1=O)(C(=O)NO)S(C)(=O)=O (racemic)
tested-target: Pseudomonas aeruginosa
K / M⁻¹ s⁻¹: 3.38e+07
--
compound: CC(CCn1ccc(-c2ccc(-c3cn(CC4CC4)nn3)cc2)cc1=O)(C(=O)NO)S(C)(=O)=O (racemic)
tested-target: Pseudomonas aeruginosa
K / M⁻¹ s⁻¹: 2.64e+07
--
compound: C=CCn1cc(-c2ccc(-c3ccn(CCC(C)(C(=O)NO)S(C)(=O)=O)c(=O)c3)cc2)nn1 (racemic)
tested-target: Pseudomonas aeruginosa
K / M⁻¹ s⁻¹: 5.2e+07
--
compound: CC(CCn1ccc(-c2ccc(CN3CCOCC3)cc2)cc1=O)(C(=O)NO)S(C)(=O)=O (racemic)
tested-target: Pseudomonas aeruginosa
K / M⁻¹ s⁻¹: 3.64e+07
--
compound: CC(CCn1ccc(-c2ccc(-c3cn(CC4CCCCC4)nn3)cc2)cc1=O)(C(=O)NO)S(C)(=O)=O (racemic)
tested-target: Pseudomonas aeruginosa
K / M⁻¹ s⁻¹: 3.1e+07
--
compound: CC(CCn1ccc(-c2ccc(-c3cn(Cc4ccccn4)nn3)cc2)cc1=O)(C(=O)NO)S(C)(=O)=O (racemic)
tested-target: Pseudomonas aeruginosa
K / M⁻¹ s⁻¹: 3.72e+07
--
compound: CC(CCn1ccc(-c2ccc(-c3cn(Cc4ccncn4)nn3)cc2)cc1=O)(C(=O)NO)S(C)(=O)=O (racemic)
tested-target: Pseudomonas aeruginosa
K / M⁻¹ s⁻¹: 4.43e+07
--
compound: CC(CCn1ccc(-c2ccc(-c3cn(CCO)nn3)cc2)cc1=O)(C(=O)NO)S(C)(=O)=O (racemic)
tested-target: Pseudomonas aeruginosa
K / M⁻¹ s⁻¹: 5.96e+07
--
compound: CC(CCn1ccc(-c2ccc(-c3cn(CC45CC(C4)C5)nn3)cc2)cc1=O)(C(=O)NO)S(C)(=O)=O (racemic)
tested-target: Pseudomonas aeruginosa
K / M⁻¹ s⁻¹: 8.52e+07

---

Collected pKi values appear next to each entry.
test-description: Binding affinity to Pseudomonas aeruginosa LpxC assessed as inhibition constant incubated for 18 hrs by fluorescence based assay
pKi: −log10 of the molar value.
result-type: pKi

compound: CC(CCn1ccc(-c2ccc(-c3cn(CC4CCCCC4)nn3)cc2)cc1=O)(C(=O)NO)S(C)(=O)=O (racemic)
val: 11.26

compound: CC(CCn1ccc(-c2ccc(CN3CCOCC3)cc2)cc1=O)(C(=O)NO)S(C)(=O)=O (racemic)
val: 10.01

compound: COc1ccc(-c2ccc(CNC3(C(=O)NO)CCS(=O)(=O)CC3)cc2F)cc1
val: 10.84

compound: COc1ccc(-c2ccc(CNC3(C(=O)NO)CCS(=O)(=O)CC3)cc2)c(F)c1
val: 10.42

compound: CC(CCn1ccc(-c2ccc(-c3cn(Cc4ccncn4)nn3)cc2)cc1=O)(C(=O)NO)S(C)(=O)=O (racemic)
val: 11.38

compound: C=CCn1cc(-c2ccc(-c3ccn(CCC(C)(C(=O)NO)S(C)(=O)=O)c(=O)c3)cc2)nn1 (racemic)
val: 11.21

compound: CC(CCn1ccc(-c2ccc(-c3cn(Cc4ccccc4)nn3)cc2)cc1=O)(C(=O)NO)S(C)(=O)=O (racemic)
val: 10.97

compound: CC(CCn1ccc(-c2ccc(-c3cn(Cc4ccc([N+](=O)[O-])cc4)nn3)cc2)cc1=O)(C(=O)NO)S(C)(=O)=O (racemic)
val: 11.15

compound: CC(CCn1ccc(-c2ccc(-c3cn(Cc4cccnc4)nn3)cc2)cc1=O)(C(=O)NO)S(C)(=O)=O (racemic)
val: 11.49

compound: CC(CCn1ccc(-c2ccc(-c3cn(CCO)nn3)cc2)cc1=O)(C(=O)NO)S(C)(=O)=O (racemic)
val: 11.43
